Tested on: Mycobacterium tuberculosis
Test: Antimycobacterial activity against Mycobacterium tuberculosis H37Rv after 10 days by micro broth dilution method
Assay type: functional
Conditions: 240 h
attribute measured: MIC
State the value with its unit after it.

Observed MIC on Mycobacterium tuberculosis, entry "CC(=O)Nc1nc(N[C@H](C(=O)OC(C)(C)C)C(C)C)c2nc[nH]c2n1" , equals 12.5 µg/mL

Consider now this further molecule.
Observed MIC on Mycobacterium tuberculosis, entry "COC(=O)[C@H](CC(C)C)NC(=O)CNc1nc(NC(C)=O)nc2[nH]cnc12" , equals 12.5 µg/mL

----------
Test system: Mycobacterium tuberculosis
Assay: Antimycobacterial activity against Mycobacterium tuberculosis H37Rv after 10 days by micro broth dilution method
Type: functional
Conditions: 240 h
attribute measured: MIC

response.value for "COC(=O)[C@H](C)NC(=O)CNc1ncnc2[nH]cnc12" (field: MIC) = 12.5 mg/L

response.value for "COC(=O)[C@@H](NC(=O)CNc1nc(NC(C)=O)nc2[nH]cnc12)C(C)C" (field: MIC) = 12.5 mg/L

response.value for "CC(=O)Nc1nc(N[C@@H](CC(=O)OC(C)(C)C)C(=O)OC(C)(C)C)c2nc[nH]c2n1" (field: MIC) = 12.5 mg/L

response.value for "CC(C)C[C@H](NC(=O)CNc1nc(N)nc2[nH]cnc12)C(=O)O.O" (field: MIC) = 12.5 mg/L

response.value for "CC(C)[C@H](NC(=O)CNc1nc(N)nc2[nH]cnc12)C(=O)O.O.O" (field: MIC) = 12.5 mg/L

response.value for "O.O=C(O)CC[C@H](NC(=O)CNc1ncnc2[nH]cnc12)C(=O)O" (field: MIC) = 0.7 mg/L

Further cases:
response.value for "C[C@H](Nc1nc(N)nc2[nH]cnc12)C(=O)O" (field: MIC) = 12.5 mg/L

response.value for "Nc1nc(N[C@@H](Cc2ccccc2)C(=O)O)c2nc[nH]c2n1" (field: MIC) = 12.5 mg/L

response.value for "CC(=O)Nc1nc(N2CCC[C@H]2C(=O)OC(C)(C)C)c2nc[nH]c2n1" (field: MIC) = 6.25 mg/L
